Values compiled from patent US11149031B2.

# pIC50 per record follows
System: MCF7 cells (breast tumor cells) WT
assay_method_text: Test B: cell proliferation/viability assay (CellTiter-Glo) on MCF7 WT
Assay type: cell-based
applied_conditions: Homo sapiens, MCF7, 168 h, 7 days of compound exposure
pIC50: −log10 of the molar value.
reported_endpoint: pIC50

>>> reported_measurement("Oc1cc2c(cc1F)C(c1ccc(O[C@H]3CCN(CCCF)C3)cc1)=C(c1ccc3occc3c1)CCO2")
9.22
>>> reported_measurement("Cc1ccc(C2=C(c3ccc(O[C@H]4CCN(CCCF)C4)cc3)c3ccc(O)cc3SCC2)c(F)c1")
9.22
>>> reported_measurement("CCOc1nccc(C2=C(c3ccc(O[C@H]4CCN(CCCF)C4)cc3)c3ccc(O)cc3SC2)c1Cl")
9.70
>>> reported_measurement("CC(C)Oc1ccc(C2=C(c3ccc(O[C@H]4CCN(CCCF)C4)cc3)c3ccc(O)cc3OCC2)c(C(F)(F)F)c1.Cl [Example 150, hydrochloride]")
9.40
>>> reported_measurement("Oc1ccc2c(c1)SCC(c1ccc3ncccc3c1)=C2c1ccc(O[C@H]2CCN(CCCF)C2)cc1")
7.92
